From: patent US20240010639A1

- assay-info: Pharmacokinetic evaluation in cynomolgus monkeys
- Format: in vivo
- measurement-context: both (Example 16), male (MYK-461), cynomolgus monkey, plasma, intravenous injection, 0.5 mg/kg, read-out: Residence time MRT
endpoint: MRT (h)
Provide only the numeric value, understood in h.

The measured MRT associated with CC(C)n1c(=O)cc(N[C@@H](C)c2ccccc2)[nH]c1=O [MYK-461, reference compound] reads 42.8

The measured MRT associated with Cc1ccc(F)c([C@H](C)Nc2nc(=O)n(C3CCOCC3)c(=O)[nH]2)c1 reads 6.8

====

- assay-info: Toxicokinetic evaluation of 14-day repeated intragastric administration to SD rats
- Assay type: in vivo
- measurement-context: both sexes, SD, rat, plasma, po, 0.5 mg/kg, repeated intragastric 0.5 mg/kg, Day 14, read-out: Apparent volume of distribution Vz/F
endpoint: Vd/F at 14 day (L/kg)
Provide only the numeric value, understood in L/kg.

The measured Vd/F at 14 day associated with CC(C)n1c(=O)cc(N[C@@H](C)c2ccccc2)[nH]c1=O [MYK-461, reference compound] reads 5.86

====

- assay-info: Toxicokinetic evaluation of 14-day repeated intragastric administration to SD rats
- Type: in vivo
- measurement-context: both sexes, SD, rat, plasma, po, 1.5 mg/kg, repeated intragastric 1.5 mg/kg, Day 1, read-out: Area under curve AUC
endpoint: AUC
Please provide the amount together with its unit, number first.

The measured AUC associated with CC(C)n1c(=O)cc(N[C@@H](C)c2ccccc2)[nH]c1=O [MYK-461, reference compound] reads 2.58 µg·h/mL

====

Some compounds, each annotated with its measured Vd/F.
- assay-info: Pharmacokinetic evaluation in beagles
- Type: in vivo
- measurement-context: both (Example 16), male (MYK-461), beagle, dog, plasma, po, intragastric administration, 2 mg/kg, read-out: Apparent volume of distribution Vz/F
Please provide the amount together with its unit, number first.

compound=Cc1ccc(F)c([C@H](C)Nc2nc(=O)n(C3CCOCC3)c(=O)[nH]2)c1 meas_value="6.05 L/kg"

API: the following record is the query input.
The measured Vd/F associated with CC(C)n1c(=O)cc(N[C@@H](C)c2ccccc2)[nH]c1=O [MYK-461, reference compound] reads 3.9 L/kg

====

- assay-info: Toxicokinetic evaluation of 14-day repeated intragastric administration to SD rats
- Type: in vivo
- measurement-context: both sexes, SD, rat, plasma, po, 3 mg/kg, repeated intragastric 3.0 mg/kg, Day 14, read-out: Residence time MRT
endpoint: MRT at 14 day (h)
Provide only the numeric value, understood in h.

The measured MRT at 14 day associated with CC(C)n1c(=O)cc(N[C@@H](C)c2ccccc2)[nH]c1=O [MYK-461, reference compound] reads 68.1

====

- assay-info: Pharmacokinetic evaluation in cynomolgus monkeys
- Type: in vivo
- measurement-context: both (Example 16), male (MYK-461), cynomolgus monkey, plasma, intravenous injection, 0.5 mg/kg, read-out: Plasma concentration Cmax
- Procedure: With cynomolgus monkeys as test animals, the plasma concentrations of the test compounds were measured by LC/MS/MS at different time points after intragastric administration and intravenous injection. The pharmacokinetic performance of the compound disclosed herein was studied in cynomolgus monkeys and its pharmacokinetic profile was evaluated. […] A certain amount of compound MYK-461 was measured out, and 5% DMSO, 20% PG, 20% PEG400 and 55% normal saline were added to prepare a clear solution. […]
Some compounds, each annotated with its measured Cmax.
Provide only the numeric value, understood in ng/mL.

compound=Cc1ccc(F)c([C@H](C)Nc2nc(=O)n(C3CCOCC3)c(=O)[nH]2)c1 unit=ng/mL meas_value=1660

The measured Cmax associated with CC(C)n1c(=O)cc(N[C@@H](C)c2ccccc2)[nH]c1=O [MYK-461, reference compound] reads 222
